target: UniProt O00329; test: Enzyme Assay
Provide the recorded IC50 for the entries that follow.
Numbers only, in nM.

Respectfully, I request IC50 for each entry included below.
1. CO[C@H]1C[C@@H](c2nc3cccc(Cl)c3c(=O)n2-c2ccccc2)N(c2ncnc(N)c2C#N)C1
2. Cc1nc(N)nc(N2CCC[C@H]2c2nc3ccc(F)c(C)c3c(=O)n2-c2ccccc2)c1C#N
3. N#Cc1cnc(N)nc1N1C[C@@H](O)C[C@H]1c1nc2cccc(C(F)(F)F)c2c(=O)n1-c1ccccc1
4. Cc1ccc(-n2c([C@@H]3CSCN3c3ncnc(N)c3C#N)nc3cccc(Cl)c3c2=O)s1
5. N#Cc1c(N)ncnc1N1CCC[C@H]1c1nc2cccc(Cl)c2c(=O)n1N1CCOCC1
6. O=c1c2c(Cl)cccc2nc([C@@H]2CSCN2c2ncnc3[nH]cnc23)n1-c1ccccc1C1CC1

Response given:
4
17
390
82
11
21

###

Provide the recorded pIC50 for the entries that follow.
molecular target: PIK3CG (human); assay: Cell-Based Assay; details: u937
Give bare numbers, as −log10 of the molar value.

Solved cases (4 shown):
Challenge: Give the value of pIC50 reported for the following: N#Cc1c(N)ncnc1N1CCC[C@H]1c1nc2cccc(C(F)(F)F)c2c(=O)n1-c1cccc(F)c1
Response given: 6.14

Challenge: Give the value of pIC50 reported for the following: Cc1nc(N)nc(N2C[C@@H](O)C[C@H]2c2nc3cccc(Cl)c3c(=O)n2-c2cccnc2)c1C#N
Response given: 7.62

Challenge: Give the value of pIC50 reported for the following: Cc1nc(N)nc(N2C[C@@H](O)C[C@H]2c2nc3cccc(C(F)(F)F)c3c(=O)n2-c2cc(F)cc(F)c2)c1C#N
Response given: 7.22

Challenge: Give the value of pIC50 reported for the following: COc1cccc2nc([C@@H]3CCCN3c3ncnc(N)c3C#N)n(-c3ccccc3)c(=O)c12
Response given: 6.42

Respectfully, I request pIC50 for each entry included below.
1. N#Cc1c(N)ncnc1N1C[C@@H](O)C[C@H]1c1nc2ccc(F)c(F)c2c(=O)n1-c1ccccc1
2. Nc1nc(N2C[C@@H](O)C[C@H]2c2nc3cccc(C(F)(F)F)c3c(=O)n2-c2ccccc2)c2nc[nH]c2n1
3. Cc1nc(N)nc(N2CCC[C@H]2c2nc3cccc(Cl)c3c(=O)n2N2CCOCC2)c1C#N
4. Cc1nc(N)nc(N2CCC[C@H]2c2nc3ccc(F)c(C(F)(F)F)c3c(=O)n2-c2ccccc2)c1C#N

Response given:
5.80
7.42
7.57
6.28

###

Provide the recorded IC50 for the entries that follow.
biological target: PIK3CD (Human) (UniProt O00329); test: Enzyme Assay
Sequence (O00329 whole entry, looked up): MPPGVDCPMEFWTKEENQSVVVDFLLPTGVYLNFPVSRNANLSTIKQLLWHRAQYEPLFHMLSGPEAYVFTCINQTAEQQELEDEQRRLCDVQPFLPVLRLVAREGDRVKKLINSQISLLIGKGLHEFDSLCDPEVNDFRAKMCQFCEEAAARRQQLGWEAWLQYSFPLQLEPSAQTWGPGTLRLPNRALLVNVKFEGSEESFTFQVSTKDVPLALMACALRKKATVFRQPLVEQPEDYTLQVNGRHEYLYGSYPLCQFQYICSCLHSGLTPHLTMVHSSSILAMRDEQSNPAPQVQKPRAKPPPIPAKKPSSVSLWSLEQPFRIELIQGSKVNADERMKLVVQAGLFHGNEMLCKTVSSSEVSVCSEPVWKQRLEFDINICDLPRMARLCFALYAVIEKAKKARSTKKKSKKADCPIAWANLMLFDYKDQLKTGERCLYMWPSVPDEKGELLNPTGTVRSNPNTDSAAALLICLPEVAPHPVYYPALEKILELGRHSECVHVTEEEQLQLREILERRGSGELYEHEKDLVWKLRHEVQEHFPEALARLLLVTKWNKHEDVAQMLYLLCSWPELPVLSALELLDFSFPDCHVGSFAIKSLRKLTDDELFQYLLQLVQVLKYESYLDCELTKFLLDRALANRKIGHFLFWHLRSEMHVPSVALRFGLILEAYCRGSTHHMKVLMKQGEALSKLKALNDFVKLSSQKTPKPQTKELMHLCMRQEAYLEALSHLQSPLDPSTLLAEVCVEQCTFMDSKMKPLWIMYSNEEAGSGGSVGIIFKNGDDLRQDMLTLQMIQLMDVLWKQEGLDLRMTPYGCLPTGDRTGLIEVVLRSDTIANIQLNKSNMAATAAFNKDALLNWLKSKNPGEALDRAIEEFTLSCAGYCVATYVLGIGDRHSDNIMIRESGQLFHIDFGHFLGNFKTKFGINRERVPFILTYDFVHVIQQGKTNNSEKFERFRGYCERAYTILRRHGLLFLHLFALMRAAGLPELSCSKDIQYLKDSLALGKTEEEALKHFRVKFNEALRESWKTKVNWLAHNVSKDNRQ
Answers are plain numbers, in nM.

Solved cases (3 shown):
Challenge: Give the value of IC50 reported for the following: Nc1nc(N2CSC[C@H]2c2nc3cccc(Cl)c3c(=O)n2-c2ccccc2)c2nc[nH]c2n1
Response given: 11

Challenge: Give the value of IC50 reported for the following: N#Cc1c(N)ncnc1N1C[C@@H](O)C[C@H]1c1nc2cccc(C(F)(F)F)c2c(=O)n1-c1cccnc1
Response given: 84

Challenge: Give the value of IC50 reported for the following: N#Cc1c(N)ncnc1N1CCC[C@H]1c1nc2cccc(OC(F)F)c2c(=O)n1-c1ccccc1
Response given: 12

Further cases:
Challenge: Give the value of IC50 reported for the following: Nc1nc(N2CCC[C@H]2c2nc3cccc(Cl)c3c(=O)n2C2CCCCC2)c2nc[nH]c2n1
Response given: 24
